Tested on: HCV genotype 1b replicon
ASSAY PROCEDURE: HCV replicon assay, cell ELISA with antibody to replicon-encoded NS3/4A (genotype 1b replicon)
Format: cell-based, hepatitis C virus
EXPERIMENTAL SETUP: Hepatitis C virus, 96 h, read-out: 1b IC50(nM), HCV genotype 1b replicon; 96 hours incubation; NS3/4A cell ELISA
This listing pairs molecules with measured IC50.
Give the quantity in nM, number only.

See these solved cases before continuing.
- MOLECULE: "CNC(=O)c1c(-c2ccc(F)cc2)oc2cc(N(C)S(C)(=O)=O)c(-c3cc(C#N)cc(-c4cc5ccccc5[nH]4)c3)cc12"
  IC50 (nM): 5.81
- MOLECULE: "CNC(=O)c1c(-c2ccc(F)cc2)oc2cc(N(C)S(C)(=O)=O)c(-c3ccc(OCCO)c(-c4nc5c(F)cccc5o4)c3)cc12"
  IC50 (nM): 1.66

Please turn your attention to the following entry.
## Input Report the value of IC50 obtained on HCV genotype 1b replicon for CNC(=O)c1c(-c2ccc(F)cc2)oc2cc(N(C3CC(C#N)C3)S(C)(=O)=O)c(-c3ccc(OC)c(-c4nc5c(F)cccc5o4)c3)cc12 (stereo not drawn) .
## Output 4.76
